assay target: T1, Glucagon receptor (rat), P30082
T1 chain: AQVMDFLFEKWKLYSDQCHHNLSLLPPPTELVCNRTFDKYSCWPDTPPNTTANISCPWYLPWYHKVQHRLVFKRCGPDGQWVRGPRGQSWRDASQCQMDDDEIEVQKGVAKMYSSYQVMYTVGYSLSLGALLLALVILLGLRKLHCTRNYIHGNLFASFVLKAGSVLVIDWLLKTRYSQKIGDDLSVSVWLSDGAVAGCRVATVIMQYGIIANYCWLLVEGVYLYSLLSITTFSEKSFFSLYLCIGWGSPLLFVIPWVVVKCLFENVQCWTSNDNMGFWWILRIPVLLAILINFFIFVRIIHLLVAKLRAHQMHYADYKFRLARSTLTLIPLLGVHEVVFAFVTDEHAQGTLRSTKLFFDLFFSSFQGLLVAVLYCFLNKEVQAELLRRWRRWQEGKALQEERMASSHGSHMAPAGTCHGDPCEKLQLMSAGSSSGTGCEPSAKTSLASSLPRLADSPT
assay notes: competition
recorded conditions: modification not given
The binders listed here are annotated with their IC50.

binder: HSQGTFTSDYAKYLDARRAKEFIAWLVKGRG [G51]
units text: µM
IC50: 0.154
--
binder: HSQGTFTSDYARYLDARRAREFIAWLVKGRG [G84]
units text: µM
IC50: 0.0117
--
binder: HSQGTFTSDYAKYLDARRAKEFIAWLVKGR [G27]
units text: µM
IC50: 0.0693
--
binder: HSQGTFTSDYARYLDAKKAKEFIAWLVKGRG [G59]
units text: µM
IC50: 0.0975
--
binder: HSQGTFTSDYAAYLDARRAKEFIAWLVKGR [G56]
units text: µM
IC50: 0.125
--
binder: HSQGTFTSDYARYLDARRAREFIAWLVRGRGK [G85]
units text: µM
IC50: 0.0161
--
binder: HSQGTFTSDYARYLDARRAKEFIAWLVRGRG [G82]
units text: µM
IC50: 0.0336

All values here come from patent US7399745.
